In this section we review reported half-life values for a set of compounds.
# experiment summary: PK study of SM components in plasma of AIA rats by UPLC-MS/MS (MG vs MPS group)
# study conditions: Sprague-Dawley, rat, plasma, po, 39.2 g/kg/day, t 1/2, MPS group: AIA rats, oral PS 9.8 g crude drug/kg/day 21 days, then oral SM 39.2 g crude drug/kg; plasma; mean ± SEM

compound	half-life
CC1(C)[C@@H](O[C@H]2O[C@H](C(=O)O)[C@@H](O)[C@H](O)[C@H]2O[C@@H]2O[C@H](C(=O)O)[C@@H](O)[C@H](O)[C@H]2O)CC[C@]2(C)[C@H]3C(=O)C=C4[C@@H]5C[C@@](C)(C(=O)O)CC[C@]5(C)CC[C@@]4(C)[C@]3(C)CC[C@@H]12 [Glycyrrhizic acid]	7.25 h
O=C(/C=C/c1ccc(O)cc1)c1ccc(O)cc1O [Isoliquiritigenin]	3.87 h
CC1(C)[C@@H](O)CC[C@]2(C)[C@H]3C(=O)C=C4[C@@H]5C[C@@](C)(C(=O)O)CC[C@]5(C)CC[C@@]4(C)[C@]3(C)CC[C@@H]12 [Glycyrrhetinic acid]	10.8 h
COc1ccc(-c2coc3cc(O)ccc3c2=O)cc1 [Formononetin]	3.76 h

====

# experiment summary: in vivo
# study conditions: Sprague-Dawley, rat, po, 39.2 g/kg/day, T max, MPS group: AIA rats, oral PS 9.8 g crude drug/kg/day 21 days, then oral SM 39.2 g crude drug/kg, plasma, mean ± SEM

compound	Tmax [min]
C[C@@]12C[C@@]3(O)O[C@@H](O1)[C@]1(COC(=O)c4ccccc4)[C@H]3C[C@@]12O[C@@H]1O[C@H](COC(=O)c2ccccc2)[C@@H](O)[C@H](O)[C@H]1O [Benzoylpaeoniflorin]	4.98
C[C@@]12C[C@@]3(O)O[C@@H](O1)[C@]1(COC(=O)c4ccccc4)[C@H]3C[C@@]12O[C@@H]1O[C@H](CO)[C@@H](O)[C@H](O)[C@H]1O [Paeoniflorin]	23.8
O=C(/C=C/c1ccc(O[C@@H]2O[C@H](CO)[C@@H](O)[C@H](O)[C@H]2O)cc1)c1ccc(O)cc1O [Isoliquiritin]	6.66
CN[C@@H](C)[C@H](O)c1ccccc1 [Ephedrine]	20
O=C1C[C@@H](c2ccc(O[C@@H]3O[C@H](CO)[C@@H](O)[C@H](O)[C@H]3O)cc2)Oc2cc(O)ccc21 [Liquiritin]	4.98
COc1ccc(-c2coc3cc(O)ccc3c2=O)cc1O [Calycosin]	4.98

====

# experiment summary: in vivo
# study conditions: Sprague-Dawley, rat, po, 39.2 g/kg/day, t 1/2, MG group: AIA rats, saline 21 days, then oral SM 39.2 g crude drug/kg, plasma, mean ± SEM

molecule smiles	scale unit	half-life
C[C@@]12C[C@@]3(O)O[C@@H](O1)[C@]1(COC(=O)c4ccccc4)[C@H]3C[C@@]12O[C@@H]1O[C@H](CO)[C@@H](O)[C@H](O)[C@H]1O	h	2.13
O=C(/C=C/c1ccc(O[C@@H]2O[C@H](CO)[C@@H](O)[C@H](O)[C@H]2O)cc1)c1ccc(O)cc1O	h	5.85
COc1ccc(-c2coc3cc(O)ccc3c2=O)cc1O	h	4.94
C[C@@]12C[C@@]3(O)O[C@@H](O1)[C@]1(COC(=O)c4ccccc4)[C@H]3C[C@@]12O[C@@H]1O[C@H](COC(=O)c2ccccc2)[C@@H](O)[C@H](O)[C@H]1O	h	3.59
CN[C@@H](C)[C@H](O)c1ccccc1	h	1.85
O=C1C[C@@H](c2ccc(O[C@@H]3O[C@H](CO)[C@@H](O)[C@H](O)[C@H]3O)cc2)Oc2cc(O)ccc21	h	2.09

====

# experiment summary: in vivo
# study conditions: Sprague-Dawley, rat, po, 39.2 g/kg/day, AUC 0-∞
value kind: AUC(0-inf) (ng·h/mL)

molecule	scale unit	numeric value
C=C1[C@H]2C[C@@]3([C@@H]1O)[C@@H](CC2=O)[C@]12[C@@H]4C[C@H]3[C@H]1N(CC)C[C@]4(C)CC[C@@H]2O [Songorine]	ng·h/mL	64.6

====

# experiment summary: PK study of SM components in plasma of AIA rats by UPLC-MS/MS (MG vs MPS group)
# study conditions: MG group: AIA rats, saline 21 days, then oral SM 39.2 g crude drug/kg; plasma; mean ± SEM
AUC 0-t values by entry
value kind: AUC 0-t (ng·h/mL)

compound	numeric value
COc1ccc(-c2coc3cc(O[C@@H]4O[C@H](CO)[C@@H](O)[C@H](O)[C@H]4O)ccc3c2=O)cc1O [Calycosin-7-glycoside]	17.473
COC[C@@]12CC[C@H](OC)[C@]34C([C@H]([C@H](OC)[C@H]13)[C@]1(O)[C@H]3[C@@H](OC(=O)c5ccccc5)[C@](O)(C[C@H]34)[C@@H](OC)[C@@H]1O)N(C)C2	1.018
CCN1C[C@]2(COC)CC[C@H](OC)[C@]34C1[C@H](C[C@H]23)[C@@]1(O)C[C@H](OC)[C@H]2C[C@@H]4[C@@H]1[C@H]2O	21.996
O=C1C[C@@H](c2ccc(O)cc2)Oc2cc(O)ccc21	48.549

====

# experiment summary: in vivo
# study conditions: Sprague-Dawley, rat, po, 39.2 g/kg/day, AUC 0-t, MG group: AIA rats, saline 21 days, then oral SM 39.2 g crude drug/kg, plasma, mean ± SEM
Overview of reported AUC 0-t across a group of compounds:
value kind: AUC 0-t (ng·h/mL)

molecule smiles	numeric value
C[C@@]12C[C@@]3(O)O[C@@H](O1)[C@]1(COC(=O)c4ccccc4)[C@H]3C[C@@]12O[C@@H]1O[C@H](COC(=O)c2ccccc2)[C@@H](O)[C@H](O)[C@H]1O	27.9
O=C(/C=C/c1ccc(O[C@@H]2O[C@H](CO)[C@@H](O)[C@H](O)[C@H]2O)cc1)c1ccc(O)cc1O	23.3
C[C@@]12C[C@@]3(O)O[C@@H](O1)[C@]1(COC(=O)c4ccccc4)[C@H]3C[C@@]12O[C@@H]1O[C@H](CO)[C@@H](O)[C@H](O)[C@H]1O	2540
CN[C@@H](C)[C@H](O)c1ccccc1	1720
O=C1C[C@@H](c2ccc(O[C@@H]3O[C@H](CO)[C@@H](O)[C@H](O)[C@H]3O)cc2)Oc2cc(O)ccc21	300
COc1ccc(-c2coc3cc(O)ccc3c2=O)cc1O	12.3

====

# experiment summary: PK study of SM components in plasma of AIA rats by UPLC-MS/MS (MG vs MPS group)
# study conditions: MG group: AIA rats, saline 21 days, then oral SM 39.2 g crude drug/kg; plasma; mean ± SEM
value kind: t 1/2 (h)

molecule smiles	numeric value
CCN1C[C@]2(COC)[C@H](O)C[C@H](OC)[C@@]34[C@@H]5C[C@@]6(O)[C@H](OC(=O)c7ccccc7)[C@@H]5[C@@](O)([C@@H]([C@H](OC)[C@H]23)[C@@H]14)[C@@H](O)[C@@H]6OC	7.430
CCN1C[C@]2(COC)CC[C@H](O)[C@]34C1[C@H]([C@H](OC)[C@H]23)[C@@]1(O)C[C@H](OC)[C@H]2C[C@@H]4[C@@H]1[C@H]2O	3.245
COC[C@@]12CC[C@H](OC)[C@]34C([C@H]([C@H](OC)[C@H]13)[C@]1(O)[C@H]3[C@@H](OC(=O)c5ccccc5)[C@](O)(C[C@H]34)[C@@H](OC)[C@@H]1O)N(C)C2	3.938
O=C1C[C@@H](c2ccc(O)cc2)Oc2cc(O)ccc21	1.841

====

# experiment summary: PK study of SM components in plasma of AIA rats by UPLC-MS/MS (MG vs MPS group)
# study conditions: MPS group: AIA rats, oral PS 9.8 g crude drug/kg/day 21 days, then oral SM 39.2 g crude drug/kg; plasma; mean ± SEM
So basically: is AUC 0-∞ under 20 ng·h/mL? Then fulfilled. Not under? Then not fulfilled.

compound	class assignment
C[C@]12C[C@@H](O)[C@@H]3C[C@@]1(O[C@@H]1O[C@H](CO)[C@@H](O)[C@H](O)[C@H]1O)[C@@]3(COC(=O)c1ccccc1)C(=O)O2 [Albiflorin]	not fulfilled
CCN1C[C@]2(COC)[C@H](O)C[C@H](OC)[C@@]34[C@@H]5C[C@@]6(O)[C@H](OC(=O)c7ccccc7)[C@@H]5[C@@](O)([C@@H]([C@H](OC)[C@H]23)[C@@H]14)[C@@H](O)[C@@H]6OC [Benzoylaconine]	fulfilled
COC[C@@]12CC[C@H](OC)[C@]34C([C@H]([C@H](OC)[C@H]13)[C@]1(O)[C@H]3[C@@H](OC(=O)c5ccccc5)[C@](O)(C[C@H]34)[C@@H](OC)[C@@H]1O)N(C)C2 [Benzoylhypaconine]	fulfilled
O=C1C[C@@H](c2ccc(O)cc2)Oc2cc(O)ccc21 [Liquiritigenin]	not fulfilled
COc1ccc(-c2coc3cc(O[C@@H]4O[C@H](CO)[C@@H](O)[C@H](O)[C@H]4O)ccc3c2=O)cc1O [Calycosin-7-glycoside]	fulfilled
O=C1C[C@@H](c2ccc(O[C@@H]3O[C@H](CO)[C@@H](O)[C@H](O)[C@H]3O)cc2)Oc2cc(O)ccc21 [Liquiritin]	not fulfilled
COC[C@]12CN(C)C3[C@@H]4[C@H](OC)[C@H]1[C@@]3([C@@H](OC)C[C@H]2O)[C@@H]1C[C@@]2(O)[C@H](OC(=O)c3ccccc3)[C@@H]1[C@]4(O)[C@@H](O)[C@@H]2OC [Benzoylmesaconitine]	not fulfilled
CCN1C[C@]2(COC)CC[C@H](O)[C@]34C1[C@H]([C@H](OC)[C@H]23)[C@@]1(O)C[C@H](OC)[C@H]2C[C@@H]4[C@@H]1[C@H]2O [Neoline]	fulfilled
CCN1C[C@]2(COC)CC[C@H](OC)[C@]34C1[C@H](C[C@H]23)[C@@]1(O)C[C@H](OC)[C@H]2C[C@@H]4[C@@H]1[C@H]2O [Talatizamine]	not fulfilled

Each recorded value in this set is attributed to paper PMC10787407.
